Values from patent US5998521A

assay: Thermogravimetric analysis of neat perfluorocarboxylate salts; format: physicochemical; details: neat salt, nitrogen, 10° C./min
Recorded Endpoint: Temperature for: 50% loss (°C)
Give the quantity in °C, number only.

The reported Temperature for: 50% loss of the compound O=C(O)C(F)(C(F)(F)C(F)(F)F)C(F)(F)C(F)(F)C(F)(F)C(F)(F)C(F)(F)C(F)(F)F (stereo not shown) [Example M19, C6 F13 CF(C2 F5)COO^- H4 N^+] was 171

Looking up O=C(O)C(F)(F)C(F)(F)C(F)(F)C(F)(F)C(F)(F)C(F)(F)C(F)(F)F [FC-143, C7 F15 COO^- H4 N^+] , I found its Temperature for: 50% loss recorded as 188

// Temperature for: 50% loss value for O=C(O)C(F)(C(F)(F)F)C(F)(F)C(F)(F)C(F)(F)C(F)(F)C(F)(F)C(F)(F)C(F)(F)C(F)(F)F (stereo not shown) [Example M17, C8 F17 CF(CF3)COO^- H4 N^+] : 162

// recorded Temperature for: 50% loss for O=C(O)C1(F)C(F)(F)C(F)(F)C(F)(F)C(F)(F)C1(F)F [U.S. Pat. No. 2,567,011, reference compound] : 110

Form: compound = O=C(O)C(F)(C(F)(F)F)C(F)(F)C(F)(F)C(F)(F)C(F)(F)C(F)(F)C(F)(F)F (stereo not shown) [Example M16, C6 F13 CF(CF3)COO^- H4 N^+] ; Temperature for: 50% loss = 179

# compound O=C(O)C(F)(C(F)(F)F)C(F)(F)C(F)(F)C(F)(F)C(F)(F)C(F)(F)C(F)(F)C(F)(F)F (stereo not shown) [Example M14, C7 F15 CF(CF3)COO^- H4 N^+] ; its Temperature for: 50% loss = 163

Per the record, O=C(O)C(F)(C(F)(F)F)C(F)(F)C(F)(F)C(F)(F)C(F)(F)C(F)(F)C(F)(F)C(F)(F)C(F)(F)C(F)(F)C(F)(F)F (stereo not shown) [Example M18, C10 F21 CF(CF3)COO^- H4 N^+] has Temperature for: 50% loss of 181

* * *

Provide the recorded Temperature for: 90% loss for the entries that follow.
assay: Thermogravimetric analysis of neat perfluorocarboxylate salts; type: physicochemical; details: neat salt, nitrogen, 10° C./min
Number only, in °C; omit the unit.

The recorded Temperature for: 90% loss for O=C(O)C(F)(F)C(F)(F)C(F)(F)C(F)(F)C(F)(F)C(F)(F)C(F)(F)F is 202

// O=C(O)C(F)(C(F)(F)F)C(F)(F)C(F)(F)C(F)(F)C(F)(F)C(F)(F)C(F)(F)C(F)(F)C(F)(F)F (stereo not drawn) : Temperature for: 90% loss value = 184

Kindly note the recorded Temperature for: 90% loss for O=C(O)C1(F)C(F)(F)C(F)(F)C(F)(F)C(F)(F)C1(F)F [U.S. Pat. No. 2,567,011, reference compound] , which is 120

* * *

assay: Bacterial sludge contact test; conditions: bacterial sludge; Day 14, with sludge
Recorded Endpoint: percent perfluoroolefin/perfluoromonohydride formed at 336 h, 1000 µM (%)
Record the value in %, omitting the unit from your answer.

Lab note: measured percent perfluoroolefin/perfluoromonohydride formed at 336 h, 1000 µM of O=C(O)C(F)(C(F)(F)F)C(F)(F)C(F)(F)C(F)(F)C(F)(F)C(F)(F)C(F)(F)F (stereo not shown) was 44
